biological target: human 5-HT6 receptor (Homo sapiens, UniProt P50406); construct: expressed in transfected cells; assay: GPCR radioligand binding assay, [3H]-LSD displacement, HEK293 membranes; conditions: 10 µM; read-out: 5-HT6 % Inhibition by plate position
Sequence (P50406 whole entry): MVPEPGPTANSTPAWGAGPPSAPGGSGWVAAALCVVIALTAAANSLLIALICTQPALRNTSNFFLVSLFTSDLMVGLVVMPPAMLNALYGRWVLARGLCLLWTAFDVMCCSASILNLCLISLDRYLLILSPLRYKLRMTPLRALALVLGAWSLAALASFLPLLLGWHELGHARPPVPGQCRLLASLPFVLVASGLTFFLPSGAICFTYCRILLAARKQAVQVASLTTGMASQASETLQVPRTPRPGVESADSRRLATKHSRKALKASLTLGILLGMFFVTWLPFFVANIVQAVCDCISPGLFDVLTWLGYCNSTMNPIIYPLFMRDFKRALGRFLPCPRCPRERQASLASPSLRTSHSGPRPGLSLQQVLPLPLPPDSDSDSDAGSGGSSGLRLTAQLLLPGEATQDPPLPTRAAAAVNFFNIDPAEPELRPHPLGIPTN
measuredParameter: inhibition at 10 µM (%)

compound: O=C(O)c1cnc(-c2ccccc2)s1
measuredParameter: inhibition at 10 µM
unitInfo: %
recordedNumber: 41
--
compound: Oc1ccccc1N1CCCCC1
measuredParameter: inhibition at 10 µM
unitInfo: %
recordedNumber: 55
--
compound: O=C(c1ccccc1F)N1CCNCC1
measuredParameter: inhibition at 10 µM
unitInfo: %
recordedNumber: 17
--
compound: O=C(O)C1CCN(c2ncccn2)CC1
measuredParameter: inhibition at 10 µM
unitInfo: %
recordedNumber: 29
--
compound: c1cnc2ncccc2c1
measuredParameter: inhibition at 10 µM
unitInfo: %
recordedNumber: 48
--
compound: O=C1NC(=O)/C(=C\c2cccs2)N1
measuredParameter: inhibition at 10 µM
unitInfo: %
recordedNumber: 32
--
compound: Nc1nnc(-c2cccs2)[nH]1
measuredParameter: inhibition at 10 µM
unitInfo: %
recordedNumber: 52
--
compound: CC(=O)c1sc(-c2ccc(O)cc2)nc1C [E1]
measuredParameter: inhibition at 10 µM
unitInfo: %
recordedNumber: 65
--
compound: Cn1c(N)nc2ccccc21
measuredParameter: inhibition at 10 µM
unitInfo: %
recordedNumber: 25
--
compound: CC1CCc2sc(C(=O)O)cc2C1 (stereo not shown)
measuredParameter: inhibition at 10 µM
unitInfo: %
recordedNumber: 45
--
compound: Cc1cc2ccccc2nc1N
measuredParameter: inhibition at 10 µM
unitInfo: %
recordedNumber: 33
--
compound: CS(=O)(=O)Nc1ccc(C(=O)O)cc1
measuredParameter: inhibition at 10 µM
unitInfo: %
recordedNumber: 38
--
compound: c1cnc2cccnc2c1
measuredParameter: inhibition at 10 µM
unitInfo: %
recordedNumber: 24
--
compound: NC(=O)N1CCC(C(=O)O)CC1
measuredParameter: inhibition at 10 µM
unitInfo: %
recordedNumber: 47
--
compound: Nc1nnc2ccccn12
measuredParameter: inhibition at 10 µM
unitInfo: %
recordedNumber: 40
--
compound: c1ccc(Nc2nncs2)cc1
measuredParameter: inhibition at 10 µM
unitInfo: %
recordedNumber: 1.55

---

molecular target: human 5-HT7b receptor (Homo sapiens, UniProt P34969); construct: expressed in transfected cells; assay: GPCR radioligand binding assay, [3H]-5-CT displacement, HEK293 membranes; conditions: 5-HT7; replicate exp_2
Sequence (P34969 1-432): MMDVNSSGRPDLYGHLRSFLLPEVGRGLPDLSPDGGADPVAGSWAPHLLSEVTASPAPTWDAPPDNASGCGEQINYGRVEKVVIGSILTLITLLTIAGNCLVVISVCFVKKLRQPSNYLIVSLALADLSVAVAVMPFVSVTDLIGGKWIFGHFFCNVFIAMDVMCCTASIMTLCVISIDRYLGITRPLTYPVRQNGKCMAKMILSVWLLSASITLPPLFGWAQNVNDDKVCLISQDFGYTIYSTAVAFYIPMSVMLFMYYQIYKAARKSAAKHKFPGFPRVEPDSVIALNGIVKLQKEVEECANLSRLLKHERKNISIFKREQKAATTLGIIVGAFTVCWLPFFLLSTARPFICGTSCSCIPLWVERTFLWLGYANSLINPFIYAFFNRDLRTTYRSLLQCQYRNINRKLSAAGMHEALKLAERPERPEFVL

compound: O=C(CN1CCCC1)c1ccccc1Cl [G10]
%inh 5-HT7 exp_2: -1%

compound: c1cnc2c(c1)NCCC2 [E7]
%inh 5-HT7 exp_2: -14%

compound: N[C@H]1c2ccccc2C[C@H]1CO [B5]
%inh 5-HT7 exp_2: -1%

compound: CCc1nccn1CC(=O)O [G11]
%inh 5-HT7 exp_2: 8%

compound: Cc1cnc(C(F)(F)F)cn1 [B9]
%inh 5-HT7 exp_2: 7%

compound: NC1CCc2ccccc21 (centres unmarked) [B4]
%inh 5-HT7 exp_2: 28%

compound: NCC1(c2ccccc2)CCOCC1 [F10]
%inh 5-HT7 exp_2: 13%

compound: O=C(c1ccccc1)N1CCC(CO)CC1 [H9]
%inh 5-HT7 exp_2: 13%

compound: CCCN1C(=O)CC(=O)NC1=S [D5]
%inh 5-HT7 exp_2: 6%

compound: N#Cc1ccc(C(=O)N2CCOCC2)cc1 [E10]
%inh 5-HT7 exp_2: 7%

compound: COc1ccc(C2=CCNCC2)cc1 [G1]
%inh 5-HT7 exp_2: 20%

compound: Nc1ccc(SC(F)F)cc1 [D1]
%inh 5-HT7 exp_2: 10%

compound: CS(=O)(=O)c1ccc(OC(F)(F)F)cc1 [B8]
%inh 5-HT7 exp_2: 8%

compound: c1ccc2sc(N3CCNCC3)nc2c1 [G5]
%inh 5-HT7 exp_2: 25%

compound: N#CCCN1CCc2ccccc21 [F4]
%inh 5-HT7 exp_2: 4.42%

compound: C1=C[C@H]2O[C@@H]1c1ccccc12 [C11]
%inh 5-HT7 exp_2: -11%

compound: O=C(CN1CCNCC1)c1ccccc1 [E5]
%inh 5-HT7 exp_2: 3%

compound: O=C(O)c1ccc(CN2CCOCC2)cc1 [H1]
%inh 5-HT7 exp_2: 23%

compound: CS(=O)(=O)c1ccc(N2CCNCC2)cc1 [B1]
%inh 5-HT7 exp_2: 40%

compound: Cc1nc(-c2ccccc2)cs1 [A7]
%inh 5-HT7 exp_2: 3.71%

compound: CCN(CC)c1cccc(C)c1 [E4]
%inh 5-HT7 exp_2: 2.81%

compound: Cc1cc(N)no1 [B11]
%inh 5-HT7 exp_2: 11%

compound: O=C1CC(CSc2ccc(Cl)cc2)=NN1 [H8]
%inh 5-HT7 exp_2: -14%

compound: COc1cccc(NC2=NCCCCC2)c1 [E8]
%inh 5-HT7 exp_2: -13%

compound: COC(=O)c1c(C)nc(C2CC2)[nH]c1=O [F1]
%inh 5-HT7 exp_2: 22%

compound: FC1(F)CNCC(F)(F)O1 [H3]
%inh 5-HT7 exp_2: -10%

compound: Oc1ccc(-n2cncn2)cc1 [H5]
%inh 5-HT7 exp_2: 21%

compound: O=C1CNCCN1c1ccccc1 [B2]
%inh 5-HT7 exp_2: -19%

compound: COc1ccccc1C1CCNCC1 [A11]
%inh 5-HT7 exp_2: 81%

compound: O=C(NC1CC1)c1ccccc1O [G4]
%inh 5-HT7 exp_2: -25%

compound: Cn1c(CO)nc2ccccc21 [G2]
%inh 5-HT7 exp_2: 0.167%

compound: O=C(O)C1CCCN(C(=O)N2CCCC2)C1 (centres unmarked) [G6]
%inh 5-HT7 exp_2: 7%

compound: CC(=O)c1ccc2c(c1)CNCC2 [C8]
%inh 5-HT7 exp_2: 0%

compound: Oc1ccc(C2CCNCC2)cc1 [E11]
%inh 5-HT7 exp_2: 12%

compound: Cc1cc(C)c2c(=O)[nH]n(C)c2n1 [F12]
%inh 5-HT7 exp_2: 7%

compound: CCn1cnc2ccccc21 [D4]
%inh 5-HT7 exp_2: -12%

compound: COc1ccccc1N1CCNCC1 [A10]
%inh 5-HT7 exp_2: 76%

compound: Cc1ccc(C)n1Cc1ccccc1Cl [D6]
%inh 5-HT7 exp_2: -8.54%

compound: Fc1ccc(CC2CCCNC2)cc1 (centres unmarked) [C1]
%inh 5-HT7 exp_2: 18%

compound: CC(CN)N1CCc2sccc2C1 (centres unmarked) [F9]
%inh 5-HT7 exp_2: 3.54%

compound: O=C1NC(=O)C2(CCc3ccccc32)N1 (centres unmarked) [B7]
%inh 5-HT7 exp_2: -2.31%

compound: c1ccc2c(N3CCNCC3)ccnc2c1 [C4]
%inh 5-HT7 exp_2: 15%

compound: Cc1ccc(CCNc2ccccc2)cn1 [H11]
%inh 5-HT7 exp_2: 12%

compound: CC1C(=O)NC(=O)N1c1ccc(Cl)cc1 (centres unmarked) [E3]
%inh 5-HT7 exp_2: 14%

compound: Oc1cnc(-c2ccccc2)nc1 [F11]
%inh 5-HT7 exp_2: 9%

compound: c1ccc(-c2ccncc2)cc1 [C2]
%inh 5-HT7 exp_2: -2%

compound: O=C1CCN(c2ccncc2)CC1 [G7]
%inh 5-HT7 exp_2: 8%

compound: CCc1ccc(NC2=NCCCS2)cc1 [D2]
%inh 5-HT7 exp_2: 0.291%

compound: Nc1ccc(-c2ccccc2)cc1C(=O)O [G9]
%inh 5-HT7 exp_2: 14%

compound: COc1ccc(CN2CCNCC2)cc1F [D11]
%inh 5-HT7 exp_2: 4.58%

compound: O=c1[nH]ncc2c1oc1ccccc12 [B6]
%inh 5-HT7 exp_2: -11%

compound: O=C1CCCc2occc21 [B3]
%inh 5-HT7 exp_2: -14%

compound: Clc1ccc2nnnn2n1 [E6]
%inh 5-HT7 exp_2: -20%

compound: Oc1nnc(-c2ccccc2)o1 [F7]
%inh 5-HT7 exp_2: 14%

compound: Brc1ccc(-c2ccon2)cc1 [A9]
%inh 5-HT7 exp_2: 10%

compound: O=c1[nH]c2c(s1)CCC2 [C10]
%inh 5-HT7 exp_2: 8%

The values you see were collected from paper PMC8159961.
